Data origin, for the record: patent US20090041783A1

# TESTED_SYSTEM: T1, human GPVI extracellular region-human Fc fusion protein (hGPVI-hFc) (human)
# T1 construct: Expressed in COS-1, purified on Protein A; also called GPVI-HHH-hFc; hGPVIHHH-hFc
# T1 sequence (chain, as listed by the source limits assumed): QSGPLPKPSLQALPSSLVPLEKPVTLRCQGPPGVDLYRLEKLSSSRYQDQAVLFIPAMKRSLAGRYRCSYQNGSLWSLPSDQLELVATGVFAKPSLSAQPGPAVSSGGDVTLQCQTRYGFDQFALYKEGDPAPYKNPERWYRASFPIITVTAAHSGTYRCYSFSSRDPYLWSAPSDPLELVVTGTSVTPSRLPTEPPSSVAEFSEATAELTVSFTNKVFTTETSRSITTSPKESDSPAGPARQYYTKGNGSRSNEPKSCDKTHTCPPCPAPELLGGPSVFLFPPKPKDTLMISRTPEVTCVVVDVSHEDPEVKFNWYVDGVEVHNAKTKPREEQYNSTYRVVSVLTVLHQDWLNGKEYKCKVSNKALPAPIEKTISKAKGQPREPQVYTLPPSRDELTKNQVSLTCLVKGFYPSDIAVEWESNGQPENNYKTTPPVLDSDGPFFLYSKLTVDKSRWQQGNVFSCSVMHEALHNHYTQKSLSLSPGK
# EXPERIMENTAL_DETAILS: ELISA on immobilised hGPVI-hFc; + A450 0.5-1.0, ++ 1.0-2.0, +++ more than 2.0
MEASUREMENT_NAME: absorbance

F1245-7-1 (antibody, V domains shown) VH: QVQLQQPGAELVKPGASVKLSCKASGYTFTSYWMHWVKQRPGQGLEWIGMIHPNSGSTNYNEKFKSKATLTVDKSSSTAYMQLSSLTSEDSAVYYCASPVTAVVEYYFDYWGQGTTLTVSS VL: SIVMTQTPKFLLVSAGDRVTITCKASQSVSNDVAWYQQKPGQSPKLLIYYASNRYTGVPDRFTGSGYGTDFTFTISTVQAEDLAVYFCQQDYSSLTFGSGTKLEIKR; 1 to 2 od
F1245-5-1 (antibody, V domains shown) VH: QVQLQQPGAELVKPGASVKLSCKASGYTFISYWMHWVKQRPGQGLEWIGMIHPNSGSTHYNEKFKSKATLTVDKSSSTAYMQLSSLTSEDSAVYYCARGGVTPVAYWGQGTLVTVSA VL: SIVMTQTPKFLLVSAGDRVTITCKASQSVSNDVAWYQQKPGQSPKLLIYYASNRYTGVPDRFTGSGYGTDFTFTISTVQAEDLAVYFCQQDYSSPWTFGGGTKLEIKR; 1 to 2 od

Read the next record carefully.
Q. Item under review: F1246-1-1 (antibody, V domains shown) VH: EVQLVESGGDLVKPGGSLKLSCAASGFTFSSYGMSWVRQTPDKRLEWVATISNGGTYTYYPDSVKGRFTISRDNAKNTLYLQMSSLKSDDTAMYYCGRLRDYYAMDYWGQGTSVTVSS VL: DIVLTQSPASLAVSLGQRATISCRASESVDSYGNSFMHWYQQKPGQPPKLLIYRASNLESGIPARFSGSGSRTDFTLTINPVEADDVATYYCQQSNEDPWTFGGGTKLEIKR . Reported absorbance?
A. 1 to 2 od
